target-under-test: Photoreceptor-specific nuclear receptor (Homo sapiens, UniProt Q9Y5X4)
Sequence (Q9Y5X4 whole entry): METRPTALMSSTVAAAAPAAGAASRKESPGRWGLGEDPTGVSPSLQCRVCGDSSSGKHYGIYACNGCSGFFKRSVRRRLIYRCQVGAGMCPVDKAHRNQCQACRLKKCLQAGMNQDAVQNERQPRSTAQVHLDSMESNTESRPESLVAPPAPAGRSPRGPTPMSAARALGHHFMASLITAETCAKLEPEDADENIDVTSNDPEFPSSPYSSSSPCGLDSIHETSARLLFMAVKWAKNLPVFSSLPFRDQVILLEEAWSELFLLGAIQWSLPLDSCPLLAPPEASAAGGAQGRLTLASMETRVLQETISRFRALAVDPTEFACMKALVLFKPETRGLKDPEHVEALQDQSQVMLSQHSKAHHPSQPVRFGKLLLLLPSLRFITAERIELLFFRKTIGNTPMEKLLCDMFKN
test-description: Agonist activity at NR2E3 by beta lactamase transactivation assay
Assay type: functional
measurement-type: pEC50
Numbers only, as −log10 of the molar value.

{"chemical-structure": "O=C(Nc1ccc(-c2nc3cc(NC(=O)[C@@H]4C[C@H]4F)ccc3[nH]2)cc1)c1ccccc1Cl", "target-under-test": "Photoreceptor-specific nuclear receptor (Homo sapiens, UniProt Q9Y5X4)", "pEC50": 6.14}
{"chemical-structure": "CC1(C(=O)Nc2ccc3nc(-c4ccc(NC(=O)c5ccccc5Cl)cc4)[nH]c3c2)CC1", "target-under-test": "Photoreceptor-specific nuclear receptor (Homo sapiens, UniProt Q9Y5X4)", "pEC50": 5.60}
{"chemical-structure": "CC(C)(C)C(=O)Nc1ccc2nc(-c3ccc(NC(=O)c4ccccc4Cl)cc3)[nH]c2c1", "target-under-test": "Photoreceptor-specific nuclear receptor (Homo sapiens, UniProt Q9Y5X4)", "pEC50": 5.20}
{"chemical-structure": "Cc1ccccc1C(=O)Nc1ccc(-c2nc3ccc(NC(=O)c4ccccc4Cl)cc3[nH]2)cc1", "target-under-test": "Photoreceptor-specific nuclear receptor (Homo sapiens, UniProt Q9Y5X4)", "pEC50": 6.59}
{"chemical-structure": "O=C(Nc1ccc(-c2nc3ccc(NC(=O)C4CC4)cc3[nH]2)cc1)c1ccccc1Cl", "target-under-test": "Photoreceptor-specific nuclear receptor (Homo sapiens, UniProt Q9Y5X4)", "pEC50": 6.85}
{"chemical-structure": "O=C(Nc1cccc(-c2nc3cc(NC(=O)c4ccccc4Cl)ccc3[nH]2)c1)c1ccccc1Cl", "target-under-test": "Photoreceptor-specific nuclear receptor (Homo sapiens, UniProt Q9Y5X4)", "pEC50": 5.00}

Kindly review the next molecule as well.
input: Query for Photoreceptor-specific nuclear receptor (Homo sapiens, UniProt Q9Y5X4): what pEC50 does the record show for `O=C(Nc1ccc(-c2nc3cc(NC(=O)c4ccccc4Cl)ccc3[nH]2)cc1)c1ccccc1` ?
output: 6.57

---

target-under-test: Photoreceptor-specific nuclear receptor (Homo sapiens)
test-description: Agonist activity at NR2E3 by luciferase NCOR release assay in CHO cells
Assay type: functional, cell-based
pEC50: −log10 of the molar value.
Each entry gets false if its pEC50 stays under 6, and true if its pEC50 is 6 or above.

input: Quick check: does `O=C(Nc1ccc(-c2nc3cc(NC(=O)C4(c5ccccc5)CC4)ccc3[nH]2)cc1)c1ccccc1Cl` have pEC50 greater than or equal to 6?
output: true

input: Given the entry `CC(C)(C)C(=O)Nc1ccc2nc(-c3ccc(NC(=O)c4ccccc4Cl)cc3)[nH]c2c1` , answer whether its pEC50 meets or surpasses 6.
output: false

input: Item `Cc1ccccc1C(=O)Nc1ccc(-c2nc3ccc(NC(=O)c4ccccc4Cl)cc3[nH]2)cc1` with pEC50 of 6 or above?
output: true

---

target-under-test: Photoreceptor-specific nuclear receptor (Homo sapiens, UniProt Q9Y5X4)
test-description: Agonist activity at NR2E3 by luciferase NCOR release assay in CHO cells
Format: functional, cell-based
Give pEC50 for every item shown.
Give bare numbers, as −log10 of the molar value.

Worked examples follow.
{"molecule": "O=C(Nc1ccc2[nH]c(-c3ccc4c(c3)OCO4)nc2c1)c1ccccc1Cl", "measurement-type": "pEC50", "measurement": 5.14}
{"molecule": "O=C(Nc1cccc(-c2nc3cc(NC(=O)c4ccccc4Cl)ccc3[nH]2)c1)c1ccccc1Cl", "measurement-type": "pEC50", "measurement": 5.39}
{"molecule": "CC(C)C(=O)Nc1ccc2nc(-c3ccc(NC(=O)c4ccccc4Cl)cc3)[nH]c2c1", "measurement-type": "pEC50", "measurement": 6.83}
{"molecule": "O=C(Nc1ccc(-c2nc3cc(NC(=O)C4CC4(F)F)ccc3[nH]2)cc1)c1ccccc1Cl (centres undefined)", "measurement-type": "pEC50", "measurement": 5.52}
{"molecule": "O=C(Nc1ccc(-c2nc3cc(NC(=O)c4ccccc4Cl)ccc3[nH]2)cc1)c1ccccc1", "measurement-type": "pEC50", "measurement": 6.21}

Answer for every listed entry: what is its pEC50? The entries follow.
1. O=C(Nc1ccc2nc(-c3cnn(-c4ccc(F)cc4)c3)[nH]c2c1)c1ccccc1Cl
2. O=C(Nc1ccc2nc(-c3ccc(NC(=O)c4cccnc4Cl)cc3)[nH]c2c1)c1ccccc1Cl
3. CC1(C(=O)Nc2ccc3nc(-c4ccc(NC(=O)c5ccccc5Cl)cc4)[nH]c3c2)CC1
4. O=C(Nc1ccc(-c2nc3cc(NC(=O)C4CCC4)ccc3[nH]2)cc1)c1ccccc1Cl

output:
5.39
5.66
5.54
6.01

---

target-under-test: Photoreceptor-specific nuclear receptor (Homo sapiens, UniProt Q9Y5X4)
test-description: Agonist activity at NR2E3 by beta lactamase transactivation assay
Format: functional
measurement-type: pEC50
One number for each entry, as −log10 of the molar value.

For orientation, consider the following solved cases.
{"molecule": "O=C(Nc1ccc(-c2nc3ccc(NC(=O)C4CCCC4)cc3[nH]2)cc1)c1ccccc1Cl", "measurement-type": "pEC50", "measurement": 5.50}
{"molecule": "O=C(Nc1ccc2nc(-c3ccc(NC(=O)c4cccnc4Cl)cc3)[nH]c2c1)c1ccccc1Cl", "measurement-type": "pEC50", "measurement": 5.32}
{"molecule": "N#CC1(C(=O)Nc2ccc3[nH]c(-c4ccc(NC(=O)c5ccccc5Cl)cc4)nc3c2)CC1", "measurement-type": "pEC50", "measurement": 4.77}

For each of the molecules below, state pEC50.
1. O=C(Nc1ccc(-c2nc3cc(NC(=O)c4ccccc4Cl)ccc3[nH]2)cc1)c1ccccc1F
2. O=C(Nc1ccc(-c2nc3cc(NC(=O)C4CCC4)ccc3[nH]2)cc1)c1ccccc1Cl
3. O=C(Nc1ccc(-c2nc3cc(NC(=O)C4CC4(F)F)ccc3[nH]2)cc1)c1ccccc1Cl (centres undefined)

output:
[6.57, 5.88, 5.68]

input: pEC50 lookup needed for `CC(C)C(=O)Nc1ccc2nc(-c3ccc(NC(=O)c4ccccc4Cl)cc3)[nH]c2c1` , thanks.
output: 6.50

---

target-under-test: UniProt:Q9Y5X4
test-description: Agonist activity at NR2E3 by luciferase NCOR release assay in CHO cells
Format: functional, cell-based
pEC50: −log10 of the molar value.
If the reported pEC50 equals or exceeds 7, assign t. If not, assign f.

{"chemical-structure": "N#CC1(C(=O)Nc2ccc3[nH]c(-c4ccc(NC(=O)c5ccccc5Cl)cc4)nc3c2)CC1", "target-under-test": "UniProt:Q9Y5X4", "discrete-label": "f"}
{"chemical-structure": "O=C(Nc1ccc(-c2nc3cc(NC(=O)c4ccccc4Cl)ccc3[nH]2)cc1)c1ccccc1F", "target-under-test": "UniProt:Q9Y5X4", "discrete-label": "f"}
{"chemical-structure": "O=C(Nc1ccc(-c2nc3ccc(NC(=O)C4CCCC4)cc3[nH]2)cc1)c1ccccc1Cl", "target-under-test": "UniProt:Q9Y5X4", "discrete-label": "f"}
{"chemical-structure": "O=C(Nc1ccc(-c2nc3ccc(NC(=O)C4CC4)cc3[nH]2)cc1)c1ccccc1Cl", "target-under-test": "UniProt:Q9Y5X4", "discrete-label": "t"}
{"chemical-structure": "O=C(Nc1ccc2nc(-c3cc(Cl)cc(Cl)c3O)[nH]c2c1)c1ccccc1Cl", "target-under-test": "UniProt:Q9Y5X4", "discrete-label": "f"}

Consider the record given below.
input: Answer whether pEC50 of `O=C(Nc1ccc(-c2nc3cc(NC(=O)[C@@H]4C[C@H]4F)ccc3[nH]2)cc1)c1ccccc1Cl` is greater than or equal to 7.
output: f
